TARGET_OR_SYSTEM: SIRT2 (Homo sapiens, UniProt Q8IXJ6)
Construct: recombinant active enzymes SIRT1, SIRT2, and the catalytically active fragment of SIRT3
Sequence (Q8IXJ6 whole entry, the tested form may be a part): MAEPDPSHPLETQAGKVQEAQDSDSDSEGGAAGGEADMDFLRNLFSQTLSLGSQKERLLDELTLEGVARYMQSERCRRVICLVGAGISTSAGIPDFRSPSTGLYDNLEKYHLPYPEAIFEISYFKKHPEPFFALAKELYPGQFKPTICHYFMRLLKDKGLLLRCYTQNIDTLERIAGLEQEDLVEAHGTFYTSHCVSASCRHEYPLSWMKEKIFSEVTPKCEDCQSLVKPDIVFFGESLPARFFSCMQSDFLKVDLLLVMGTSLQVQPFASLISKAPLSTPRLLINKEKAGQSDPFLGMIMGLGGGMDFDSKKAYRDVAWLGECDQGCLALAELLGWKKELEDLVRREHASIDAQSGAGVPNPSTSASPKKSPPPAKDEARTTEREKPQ
EXPERIMENT: Fluor-de-Lys biochemical sirtuin deacetylation assay, SIRT2
TEST_CONDITIONS: 10 μM
Structures can show the parent of a compound that is named as a salt.
MEASUREMENT_LABEL: inhibition at 10 µM (%)

| COMPOUND | SCALE_UNIT | RESULT |
| --- | --- | --- |
| CN(c1ccc(Cl)cc1)S(=O)(=O)c1cccc(C(=O)Nc2ccc(CN)cc2)c1 [Compound 203Aa] | % | 15 |

(I) CN(C(=O)c1cncc(CN(Cc2ccc(C#N)cc2)C2CC2)c1)c1ccc(Cl)cc1 [Compound 225p, hydrochloride]
(II) CC(O)c1ccc([C@@H](C)Oc2cccc(C(=O)Nc3ccc(C#N)cc3)c2)cc1 (stereo partly shown) [Compound 216Am]
(III) COc1ccc(COc2cccc(C(=O)Nc3ccc(S(C)(=O)=O)cc3)c2)cc1 [Compound 216f]
Query: Sort entries by inhibition at 10 µM from minimum to maximum value. To answer, arrange all of the labels according to the requested order.
Reply: I, II, III

Values compiled from patent US9890117B2.
